- measurementTarget: T1, human GITR (amino acids M1-V241, NCBI Accession #NP_004186.1) expressed on cells (human, UniProt Q9Y5U5 26-241)
- T1 sequence: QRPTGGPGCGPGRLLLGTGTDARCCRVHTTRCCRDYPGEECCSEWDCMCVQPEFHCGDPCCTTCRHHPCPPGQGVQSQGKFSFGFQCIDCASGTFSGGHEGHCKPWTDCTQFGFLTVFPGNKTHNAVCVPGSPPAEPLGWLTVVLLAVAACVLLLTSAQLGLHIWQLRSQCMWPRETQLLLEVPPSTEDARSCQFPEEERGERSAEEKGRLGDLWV
- testDescription: cell-based or functional assay
Listing of entries alongside the reported % Activation, NF-kB-Luc, non-anchored.
Param answer (str): number followed by unit.

Some binders with recorded % Activation, NF-kB-Luc, non-anchored:
>>> result("H1H14495P (antibody, human IgG1, V domains shown, human IgG1 (H1H)) VH: QVQLVESGGGAVQPGTSLRLSCAASGFTFSSFGMHWVRQAPGKGLEWVSVIWYEGSNKYYADSVKGRFTISRDNSRNTLSLQMDSLRVEDTAVYYCARGGELGVNYYYDMDVWGQGTTVTVSS VL: DIQMTQSPSSLSASVGDRVTITCRASQDIKNDLGWFQQKAGKAPKRLFYATSSLQSGVPSRFSGSGSGTEFTLTISSLQPEDFATYYCLQVHSYPRTFGQGTKVEIK")
"30%"
>>> result("H4H14470P (antibody, human IgG4, V domains shown, human IgG4 (H4H)) VH: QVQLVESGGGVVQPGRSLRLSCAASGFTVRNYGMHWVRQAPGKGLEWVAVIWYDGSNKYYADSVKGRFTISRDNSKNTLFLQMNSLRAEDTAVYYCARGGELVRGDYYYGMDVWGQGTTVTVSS VL: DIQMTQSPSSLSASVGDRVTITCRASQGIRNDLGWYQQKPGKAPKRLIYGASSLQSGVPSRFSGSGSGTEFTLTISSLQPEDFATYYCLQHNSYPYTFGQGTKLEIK")
"20%"
>>> result("H1H14491P (antibody, human IgG1, V domains shown, human IgG1 (H1H)) VH: QVQLVESGGGVVQPGRSLRLSCVASGFTFSDYGMHWVRQAPGKGLEWVAVIWYEGSNKYYADSVTGRFTISRDNSKNTLFLQMNSLKAEDTAEYYCAKDGGQLAYQYYYGMDVWGQGTTVTVSS VL: AIQMTQSPSSLSASVGDRVTLTCRASQGIRNDLGWYQQKPGKAPKSLIYAASNLQSGVPSRFSGSGSGTDFTLTISSLQPEDSATYYCLQDYNYPRTFGQGTKVEIK")
"60%"

Kindly review the next binder as well.
(Q) Consider the binder H4H14525P (antibody, human IgG4, V domains shown, human IgG4 (H4H)) VH: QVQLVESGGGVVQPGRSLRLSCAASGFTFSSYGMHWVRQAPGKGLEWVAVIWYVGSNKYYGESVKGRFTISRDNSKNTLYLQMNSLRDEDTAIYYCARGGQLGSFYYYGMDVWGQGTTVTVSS VL: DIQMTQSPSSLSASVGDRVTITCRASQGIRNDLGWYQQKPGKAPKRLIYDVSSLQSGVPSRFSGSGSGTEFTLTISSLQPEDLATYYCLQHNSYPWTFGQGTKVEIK and give its measured % Activation, NF-kB-Luc, non-anchored.
(A) 20%
